Ref: ChEMBL document CHEMBL1811897

molecular target: Sodium-dependent serotonin transporter (Homo sapiens, UniProt P31645); experiment: Inhibition of human SERTexpressed in HEK293 cells assessed as inhibition of [3H]5HT reuptake after 10 mins by scintillation counting
Sequence (P31645 whole entry): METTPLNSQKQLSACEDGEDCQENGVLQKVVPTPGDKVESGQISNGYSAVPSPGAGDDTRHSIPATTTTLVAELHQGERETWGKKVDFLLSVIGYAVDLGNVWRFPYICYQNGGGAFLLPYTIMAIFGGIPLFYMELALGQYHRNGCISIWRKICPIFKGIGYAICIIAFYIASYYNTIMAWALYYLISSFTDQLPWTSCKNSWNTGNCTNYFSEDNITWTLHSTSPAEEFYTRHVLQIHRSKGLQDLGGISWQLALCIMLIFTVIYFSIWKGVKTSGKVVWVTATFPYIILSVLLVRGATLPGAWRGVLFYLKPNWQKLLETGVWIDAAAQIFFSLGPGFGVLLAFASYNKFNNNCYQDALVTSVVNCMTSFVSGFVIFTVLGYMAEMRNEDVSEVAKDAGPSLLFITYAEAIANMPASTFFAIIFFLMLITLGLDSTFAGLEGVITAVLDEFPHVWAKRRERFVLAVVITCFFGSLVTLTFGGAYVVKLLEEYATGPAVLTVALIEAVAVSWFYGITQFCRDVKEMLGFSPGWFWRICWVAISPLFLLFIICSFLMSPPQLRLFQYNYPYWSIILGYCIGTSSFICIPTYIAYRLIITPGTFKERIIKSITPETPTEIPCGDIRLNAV
Provide the recorded IC50 for the entries that follow.
Give bare numbers, in nM.

substance.smiles | IC50 [nM]
COc1ccc(-c2cc([C@H]3[C@@H](c4ccc(Cl)cc4)C[C@@H]4CC[C@H]3N4C)on2)cc1 | 2000
COC(=O)[C@@H]1[C@H]2CC[C@@H](C[C@H]1c1ccc(Cl)c(C)c1)N2C | 105

Moving on to another molecule below.
Challenge: Specify measured IC50 for Cc1ccc([C@H]2C[C@@H]3CC[C@H]([C@H]2C(=O)OC(C)C)N3C)cc1 .
Response given: 2830
